Origin of measurements: ChEMBL document CHEMBL1155906

Target: Somatostatin receptor type 4 (Homo sapiens, UniProt P31391)
Sequence (P31391 whole entry): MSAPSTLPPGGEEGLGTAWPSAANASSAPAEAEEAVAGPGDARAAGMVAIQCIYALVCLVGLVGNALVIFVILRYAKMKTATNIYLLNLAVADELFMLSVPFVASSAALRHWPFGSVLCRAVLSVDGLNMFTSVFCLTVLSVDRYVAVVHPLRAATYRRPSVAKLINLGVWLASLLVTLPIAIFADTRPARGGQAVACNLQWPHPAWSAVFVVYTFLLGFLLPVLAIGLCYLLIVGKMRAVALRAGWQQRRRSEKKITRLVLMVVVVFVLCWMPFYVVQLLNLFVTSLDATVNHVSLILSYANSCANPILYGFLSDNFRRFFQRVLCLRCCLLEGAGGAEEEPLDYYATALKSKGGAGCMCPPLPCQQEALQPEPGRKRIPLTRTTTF
Assay: Inhibition of sst4 receptor
pIC50: −log10 of the molar value.
Endpoint name: pIC50

I'd like to know its pIC50. The molecule in question is Fc1ccc(-c2noc(C3CCN(c4cnc5ccc(Cl)cc5c4)CC3)n2)c(Cl)c1 < 4.30

* * *

Target: Histamine H1 receptor (Homo sapiens)
Sequence (P35367 whole entry): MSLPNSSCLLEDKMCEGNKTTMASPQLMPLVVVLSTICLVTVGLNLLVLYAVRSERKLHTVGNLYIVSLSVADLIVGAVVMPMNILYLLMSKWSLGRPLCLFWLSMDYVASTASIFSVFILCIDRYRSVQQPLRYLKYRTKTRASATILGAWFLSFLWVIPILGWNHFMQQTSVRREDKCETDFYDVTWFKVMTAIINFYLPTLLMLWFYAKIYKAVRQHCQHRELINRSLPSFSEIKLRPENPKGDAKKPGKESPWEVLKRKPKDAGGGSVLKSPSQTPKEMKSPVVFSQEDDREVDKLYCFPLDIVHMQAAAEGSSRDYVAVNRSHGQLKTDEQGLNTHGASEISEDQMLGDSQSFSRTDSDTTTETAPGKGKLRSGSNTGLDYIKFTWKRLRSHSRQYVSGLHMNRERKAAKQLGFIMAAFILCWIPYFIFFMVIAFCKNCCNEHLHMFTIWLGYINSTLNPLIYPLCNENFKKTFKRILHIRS
Assay: Agonist activity at histamine H1 receptor
Endpoint name: EC50

I'd like to know its EC50. The compound in question is Fc1ccc(-c2noc(C3CCN(c4cnc5ccc(Cl)cc5c4)CC3)n2)c(Cl)c1 > 50 µM

* * *

Assay: Clearance in iv dosed rat
Format: ADME, organism-based
Conditions: in vivo
Endpoint name: clearance (mL/min/kg)
Numbers only; they are read as mL/min/kg.

I'd like to know its clearance. The compound in question is O=C(CCc1nc(-c2ccc(F)cc2Cl)no1)Nc1cnc2ccccc2c1 95

* * *

Target: Cannabinoid receptor 2 (Homo sapiens, UniProt P34972)
Sequence (P34972 whole entry): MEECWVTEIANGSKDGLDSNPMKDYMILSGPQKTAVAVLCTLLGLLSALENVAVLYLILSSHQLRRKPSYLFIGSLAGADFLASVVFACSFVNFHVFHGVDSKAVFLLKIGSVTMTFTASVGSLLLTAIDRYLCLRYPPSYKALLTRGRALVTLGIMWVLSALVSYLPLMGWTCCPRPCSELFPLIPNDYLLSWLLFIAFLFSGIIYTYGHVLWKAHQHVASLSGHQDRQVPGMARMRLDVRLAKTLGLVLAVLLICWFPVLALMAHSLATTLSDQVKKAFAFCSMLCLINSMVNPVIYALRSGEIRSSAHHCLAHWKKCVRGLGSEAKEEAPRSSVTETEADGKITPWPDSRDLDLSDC
Assay: Agonist activity at human CB2 receptor expressed in insect Sf9 cells assessed as effect on Eu-GTP binding
Response field label takes Satisfied when EC50 is strictly below 400 nM and Not satisfied in all other cases.

Lab note: EC50 threshold 400 nM. Does this compound come in strictly under it? Fc1ccc(-c2noc(C3CCN(c4ccc(Cl)c(C(F)(F)F)c4)CC3)n2)c(Cl)c1 Satisfied

Lab note: EC50 threshold 400 nM. Does this compound come in strictly under it? Clc1cnccc1-c1noc(C2CCN(c3cnc4ccccc4c3)CC2)n1 Satisfied

Lab note: EC50 threshold 400 nM. Does this compound come in strictly under it? CC(C)c1noc(C2CCN(c3cnc4ccccc4c3)CC2)n1 Not satisfied

Lab note: EC50 threshold 400 nM. Does this compound come in strictly under it? Fc1ccc(-c2noc([C@H]3C[C@@H]3CNc3cnc4ccccc4c3)n2)c(Cl)c1 (racemic) Satisfied

Lab note: EC50 threshold 400 nM. Does this compound come in strictly under it? Fc1ccc(-c2noc(C3CCN(c4ccnc5ccccc45)CC3)n2)c(Cl)c1 Not satisfied

* * *

Assay: Agonist activity at adrenergic alpha1 receptor
Type: functional
Endpoint name: EC50

I'd like to know its EC50. The compound in question is Fc1ccc(-c2noc(C3CCN(c4cnc5ccc(Cl)cc5c4)CC3)n2)c(Cl)c1 > 50 µM

* * *

# reported Emax; entries follow
Target: Cannabinoid receptor 1 (Homo sapiens)
Assay: Agonist activity at human CB1 receptor assessed as inhibition of forskolin-induced increase in intracellular cAMP relative to CP-55940
Format: functional, cell-based
Numbers only; they are read as %.

Worked examples, 5 compounds total:
Fc1ccc(-c2noc(C3CCN(c4cnc5ccccc5c4)CC3)n2)c(Cl)c1; 17
O=C(CCc1nc(-c2ccc(F)cc2Cl)no1)Nc1cnc2ccccc2c1; 49
Fc1ccc(-c2noc(C3CCN(c4cnc5ccc(Cl)cc5c4)CC3)n2)c(Cl)c1; 19
CC(C)(CCc1nc(-c2ccc(F)cc2Cl)no1)Nc1cnc2ccccc2c1; 46
Fc1ccc(-c2noc(C[C@@H]3CCN(c4cnc5ccccc5c4)C3)n2)c(Cl)c1; 3

API: the following record is the query input.
I'd like to know its Emax. The compound in question is Fc1ccc(-c2noc([C@H]3C[C@@H]3CNc3cnc4ccccc4c3)n2)c(Cl)c1 (racemic) 1

* * *

Biological target: Cannabinoid receptor 1 (Homo sapiens, UniProt P21554)
Sequence (P21554 whole entry): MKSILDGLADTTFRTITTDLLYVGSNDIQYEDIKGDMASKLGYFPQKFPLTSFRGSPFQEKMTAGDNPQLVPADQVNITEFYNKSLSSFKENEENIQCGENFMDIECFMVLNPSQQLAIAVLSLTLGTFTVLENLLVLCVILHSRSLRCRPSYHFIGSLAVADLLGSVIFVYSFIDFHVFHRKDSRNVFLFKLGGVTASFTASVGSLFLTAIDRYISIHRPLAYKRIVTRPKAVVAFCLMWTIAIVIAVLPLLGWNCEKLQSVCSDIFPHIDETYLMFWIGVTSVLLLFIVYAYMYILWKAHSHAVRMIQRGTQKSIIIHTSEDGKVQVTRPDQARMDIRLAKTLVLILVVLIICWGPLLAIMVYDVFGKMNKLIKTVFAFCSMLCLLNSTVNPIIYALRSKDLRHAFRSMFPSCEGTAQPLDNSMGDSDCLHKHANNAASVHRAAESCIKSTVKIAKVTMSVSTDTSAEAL
Experiment: Agonist activity at human CB1 receptor expressed in insect Sf9 cells assessed as effect on Eu-GTP binding relative to CP-55940
Response field label takes Satisfied when Emax is strictly below 30% and Not satisfied in all other cases.

// known answers, use as guide
O=C(NCCc1nc(-c2ccc(F)cc2Cl)no1)c1cnc2ccccc2c1; Satisfied
Fc1ccc(-c2noc(C3CCN(c4cnc5ccc(Cl)cc5c4)CC3)n2)c(Cl)c1; Not satisfied
Fc1ccccc1-c1noc(C2CCN(c3cnc4ccccc4c3)CC2)n1; Satisfied
c1ccc2ncc(N3CCC(c4nc(-c5ccncc5)no4)CC3)cc2c1; Satisfied
Clc1cnccc1-c1noc(C2CCN(c3cnc4ccccc4c3)CC2)n1; Satisfied
Fc1ccc(-c2noc(C3CCN(c4cnc5ccccc5c4)CC3)n2)c(Cl)c1; Not satisfied
c1ccc2ncc(N3CCC(c4nc(C5CCCCC5)no4)CC3)cc2c1; Not satisfied
Fc1ccc(-c2noc(C[C@@H]3CCN(c4cnc5ccccc5c4)C3)n2)c(Cl)c1; Not satisfied
Clc1ccc(-c2noc(C3CCN(c4cnc5ccccc5c4)CC3)n2)cc1; Satisfied

Lab note: Emax threshold 30%. Does this compound come in strictly under it? CC(C)(CCc1nc(-c2ccc(F)cc2Cl)no1)Nc1cnc2ccccc2c1 Not satisfied
